Molecular target: UniProt:P21453
Sequence (P21453 whole entry, looked up): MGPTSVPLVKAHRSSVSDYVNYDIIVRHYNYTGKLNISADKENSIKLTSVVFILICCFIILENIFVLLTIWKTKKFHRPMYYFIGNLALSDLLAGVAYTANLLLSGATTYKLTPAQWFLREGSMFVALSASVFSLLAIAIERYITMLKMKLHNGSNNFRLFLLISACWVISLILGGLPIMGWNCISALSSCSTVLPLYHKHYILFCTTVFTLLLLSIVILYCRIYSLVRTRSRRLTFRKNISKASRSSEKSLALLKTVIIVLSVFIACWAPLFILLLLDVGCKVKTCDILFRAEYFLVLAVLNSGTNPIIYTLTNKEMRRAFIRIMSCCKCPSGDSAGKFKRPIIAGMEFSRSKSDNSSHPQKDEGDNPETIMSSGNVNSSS
Experiment: S1P1 receptor agonists, late-stage follow-up, selectivity assay for S1P3 agonist project, cell-based, fluorescence, dose response, set 3 (AID 540368)
Details: run 2
Calls of active or inactive are those of the source. How the calls were made is not given here.
Please answer using one outcome listed in YES (active), NO (inactive)

O=C(c1cc(C2CC2)on1)N(C1CCCCC1)C1CCCC1	NO

Prompt: I would be grateful if you could indicate the recorded call for CCCc1cc(C(=O)N(C2CCCCC2)C2CCCCC2)no1 .
Completion: YES

Prompt: I would be grateful if you could indicate the recorded call for CCN(CC)C(=O)c1cc(C2CC2)on1 .
Completion: NO

Prompt: I would be grateful if you could indicate the recorded call for CC1CCCCC1N(C(=O)c1cc(C2CC2)on1)C1CCCCC1C (stereo not drawn) .
Completion: NO

Prompt: I would be grateful if you could indicate the recorded call for CC(C)c1cc(C(=O)N(C2CCCCC2)C2CCCCC2)no1 .
Completion: NO

Prompt: I would be grateful if you could indicate the recorded call for CC1CCCCC1N(C(=O)c1cc(C2CC2)on1)C1CCCCC1 (stereo not drawn) .
Completion: NO

Prompt: I would be grateful if you could indicate the recorded call for O=C(c1cc(C2CC2)on1)N(C1CCCCC1)C1CCOCC1 .
Completion: NO

Prompt: I would be grateful if you could indicate the recorded call for CC(C)Cc1cc(C(=O)N(C2CCCCC2)C2CCCCC2)no1 .
Completion: YES
